# Test system: thrombocyte aggregation in the platelet-rich plasma of healthy human donors
# ASSAY_NAME: Born test; collagen aggregation
# Format: cell-based
# DETAILS: Homo sapiens, read-out: concentration causing a 50% diminution of aggregation
pIC50: −log10 of the molar value.

{"columns": ["COMPOUND", "pIC50"],
 "data": [
  ["CC(=O)Oc1ccccc1C(=O)O [N, acetylsalicylic acid, reference compound]", "~4.40"]
]}

###

# ASSAY_NAME: Acute toxicity in the rat, oral
# Assay type: in vivo
# DETAILS: in vivo, po, per os, male and female FW 49-rats, within 14 days
compounds and their reported LD50 at 336 h

{"columns": ["COMPOUND", "LD50 at 336 h [mg/kg]"],
 "data": [
  ["COc1ccc2c(c1)c(CC(=O)O)c(C)n2C(=O)c1ccc(Cl)cc1 [B, indomethacin, reference compound]", 25.7],
  ["CN1C(C(=O)Nc2nccs2)=C(O)c2ccccc2S1(=O)=O [E, reference compound]", 136],
  ["CN1C(C(=O)Nc2nccs2)=C(O)c2ccc3ccccc3c2S1(=O)=O", 207]
]}
